- assay system: T1, EsCas13d, nuclease-dead (Eubacterium siraeum, UniProt B0MS50, R295A;H300A;R849A;H854A)
- T1 sequence: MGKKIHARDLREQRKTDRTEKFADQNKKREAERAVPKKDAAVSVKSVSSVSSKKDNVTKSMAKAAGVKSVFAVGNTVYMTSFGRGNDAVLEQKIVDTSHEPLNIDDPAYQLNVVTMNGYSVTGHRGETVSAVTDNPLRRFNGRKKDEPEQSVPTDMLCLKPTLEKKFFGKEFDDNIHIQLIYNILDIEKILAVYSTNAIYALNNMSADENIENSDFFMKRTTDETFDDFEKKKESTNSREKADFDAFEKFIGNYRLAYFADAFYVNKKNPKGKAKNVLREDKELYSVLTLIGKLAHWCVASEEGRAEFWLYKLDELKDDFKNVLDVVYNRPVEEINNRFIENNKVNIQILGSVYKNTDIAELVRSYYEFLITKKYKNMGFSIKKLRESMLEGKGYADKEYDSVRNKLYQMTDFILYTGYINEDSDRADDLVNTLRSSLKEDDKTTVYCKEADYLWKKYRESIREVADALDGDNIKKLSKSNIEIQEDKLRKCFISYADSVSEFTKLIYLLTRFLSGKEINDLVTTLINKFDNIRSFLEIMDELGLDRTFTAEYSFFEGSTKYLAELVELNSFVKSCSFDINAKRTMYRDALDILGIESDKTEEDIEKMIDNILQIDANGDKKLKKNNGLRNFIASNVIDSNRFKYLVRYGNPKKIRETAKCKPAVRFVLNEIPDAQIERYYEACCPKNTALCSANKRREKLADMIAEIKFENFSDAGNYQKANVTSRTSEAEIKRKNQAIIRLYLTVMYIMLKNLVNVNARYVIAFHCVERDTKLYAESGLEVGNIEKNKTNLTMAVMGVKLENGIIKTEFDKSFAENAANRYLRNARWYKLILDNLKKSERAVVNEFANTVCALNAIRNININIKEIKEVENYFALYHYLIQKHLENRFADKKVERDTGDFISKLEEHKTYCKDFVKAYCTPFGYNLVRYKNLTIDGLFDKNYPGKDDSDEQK
- protocol: crRNA (strand 1, pre-loaded); Mg2+; 40 mM Tris-HCl pH 7.5, 150 mM NaCl, 6 mM MgCl2, 1 mM DTT, 0.1% Tween-20, 0.2 mg/ml BSA; 25 C; 10 min per concentration, then washed
- experimental conditions: tags: His6-TwinStrep-SUMO cleaved; N-terminal SNAP kept (SNAP-Surface 488); label: 3' end held by stalled T7 RNA polymerase
Measured Kd by item
Lab book: enter the figure in nM, no units written.

The examples below pair each entry with its known result.
binder	Kd / nM
target 1 C7G,U10A (mixed) RNA 1: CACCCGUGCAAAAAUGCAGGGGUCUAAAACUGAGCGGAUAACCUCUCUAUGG RNA 2: GGGAAUGGAUCCACAUCUACGAAUUCGUACCAUAGAGAGGUAAUGCGCUCACCGAGAUCGGAAGAGCACACGU	11.7
target 1 U3A,A20U (mixed) RNA 1: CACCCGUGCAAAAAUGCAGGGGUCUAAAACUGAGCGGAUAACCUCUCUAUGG RNA 2: GGGAAUGGAUCCACAUCUACGAAUUCGUACCUUAGAGAGGUUAUCCGCACACCGAGAUCGGAAGAGCACACGU	44

Consider now this further binder.
Please give the measured Kd for this binder: target 2 MT 5'PFS CGA 3'PFS CCG (mixed) RNA 1: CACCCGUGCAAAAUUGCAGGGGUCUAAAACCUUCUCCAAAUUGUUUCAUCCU RNA 2: GGGAAUGGAUCCACAUCUACGAAUUCCGAAGGAUGAAACAAUUUGGAGAAGCCGAGAUCGGAAGAGCACACGU 11.1
